Values compiled from patent US6900244B2.

Provide the reported melting point of each item.
Express the result in °C but write the number alone.

For the molecule CCOC(=O)C1(Nc2ccc(C(O)(C(F)(F)F)C(F)(F)F)cc2)CCC(C(C)(C)C)CC1 (stereo not drawn) , what melting point is on record?
107

For the molecule CCOC(=O)CN(Cc1cccc(Cl)c1)c1ccc(C(O)(C(F)(F)F)C(F)(F)F)cc1 , what melting point is on record?
81.5

For the molecule CCOC(=O)CN(Cc1ccc(Cl)cc1Cl)c1ccc(C(O)(C(F)(F)F)C(F)(F)F)cc1 , what melting point is on record?
111

For the molecule CN(CC(=O)OCc1ccc(Cl)cc1)c1ccc(C(O)(C(F)(F)F)C(F)(F)F)cc1 , what melting point is on record?
66.5

For the molecule CCOC(=O)CN(Cc1ccc(OC)cc1)c1ccc(C(O)(C(F)(F)F)C(F)(F)F)cc1 , what melting point is on record?
68

For the molecule CCOC(=O)CCN(C)c1ccc(C(O)(C(F)(F)F)C(F)(F)F)cc1 , what melting point is on record?
77

For the molecule CCOC(=O)CN(CC(F)(F)F)c1ccc(C(O)(C(F)(F)F)C(F)(F)F)cc1 , what melting point is on record?
67

For the molecule CCOC(=O)CN(Cc1ccccc1)c1ccc(C(O)(C(F)(F)F)C(F)(F)F)cc1 , what melting point is on record?
116

For the molecule CCOC(=O)C(C)(C)Nc1ccc(C(O)(C(F)(F)F)C(F)(F)F)cc1 , what melting point is on record?
93

For the molecule CCOC(=O)CN(Cc1ccccc1Cl)c1ccc(C(O)(C(F)(F)F)C(F)(F)F)cc1 , what melting point is on record?
146

For the molecule CON(C)C(=O)CN(C)c1ccc(C(O)(C(F)(F)F)C(F)(F)F)cc1 , what melting point is on record?
121

For the molecule CCOC(=O)C1(Nc2ccc(C(O)(C(F)(F)F)C(F)(F)F)cc2)CCC(C)CC1 (stereo not drawn) , what melting point is on record?
142.6

====

RECORDED ENDPOINT: melting point
Don't forget the unit after the number, please.

For the compound CN(CC(=O)N1CCOCC1)c1ccc(C(O)(C(F)(F)F)C(F)(F)F)cc1 [Example 38] , what melting point is on record?
149 °C

For the compound CCOC(=O)CC(C)Nc1ccc(C(O)(C(F)(F)F)C(F)(F)F)cc1 (centres unmarked) [Example 1] , what melting point is on record?
103 °C

For the compound CCOC(=O)CN(Cc1cccnc1)c1ccc(C(O)(C(F)(F)F)C(F)(F)F)cc1 [Example 22] , what melting point is on record?
55 °C

For the compound CCOC(=O)CN1CCCc2cc(C(O)(C(F)(F)F)C(F)(F)F)ccc21 [Example 31] , what melting point is on record?
66.5 °C

For the compound CN(CC(=O)N1CCCC1)c1ccc(C(O)(C(F)(F)F)C(F)(F)F)cc1 [Example 39] , what melting point is on record?
184 °C
